Origin of measurements: patent US12029744B2

Give measured Ki for each item. Keep answers brief.
# target-system: ENPP1 (Homo sapiens)
# Sequence (P22413 whole entry, species assumed): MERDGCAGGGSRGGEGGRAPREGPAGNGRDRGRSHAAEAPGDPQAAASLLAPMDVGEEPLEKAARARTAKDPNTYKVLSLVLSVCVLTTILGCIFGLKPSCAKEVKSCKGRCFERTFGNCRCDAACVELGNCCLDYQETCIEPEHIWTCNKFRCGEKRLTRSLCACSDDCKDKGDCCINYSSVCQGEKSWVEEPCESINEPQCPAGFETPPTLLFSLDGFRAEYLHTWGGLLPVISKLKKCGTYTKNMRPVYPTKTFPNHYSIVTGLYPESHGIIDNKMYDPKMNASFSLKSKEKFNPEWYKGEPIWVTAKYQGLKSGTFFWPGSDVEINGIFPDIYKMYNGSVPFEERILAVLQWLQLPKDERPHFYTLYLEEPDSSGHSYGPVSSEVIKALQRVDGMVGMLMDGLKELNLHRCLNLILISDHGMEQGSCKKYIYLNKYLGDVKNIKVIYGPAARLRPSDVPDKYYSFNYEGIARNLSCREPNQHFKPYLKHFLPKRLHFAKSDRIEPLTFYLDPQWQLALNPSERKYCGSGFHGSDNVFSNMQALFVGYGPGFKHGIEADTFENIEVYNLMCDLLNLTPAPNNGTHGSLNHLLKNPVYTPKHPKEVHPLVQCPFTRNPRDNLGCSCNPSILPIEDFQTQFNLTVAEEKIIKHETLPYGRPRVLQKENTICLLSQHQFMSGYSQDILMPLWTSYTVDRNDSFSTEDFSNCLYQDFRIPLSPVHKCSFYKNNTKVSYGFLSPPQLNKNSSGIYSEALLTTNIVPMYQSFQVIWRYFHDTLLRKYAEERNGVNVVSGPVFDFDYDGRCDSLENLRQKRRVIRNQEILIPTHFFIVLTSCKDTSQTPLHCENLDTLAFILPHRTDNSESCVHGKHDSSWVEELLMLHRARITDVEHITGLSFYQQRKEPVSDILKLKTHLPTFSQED
# assay-notes: Measurement of pNP-TMP hydrolysis by ENPP1 (enzyme activity assay, absorbance at 405 nm)
# Type: biochemical
# measurement-context: substrate pNP-TMP 500 μM, KM 232 μM; Ki from IC50 by Cheng-Prusoff; read-out: Ki (pNP-TMP)
Where a name gives a salt, the structure may show the parent alone.

(Q) Return reported Ki; argument: "OB(O)c1ccc(Cn2cnc3nc(O)ccc32)cc1"
(A) < 0.01 µM

(Q) Similarly, "COc1cc2ncn(Cc3ccc(B(O)O)cc3)c2cc1OC" ?
(A) < 0.1 µM

(Q) Similarly, "CCc1nc2c(O)nccc2n1Cc1ccc(B(O)O)cc1" ?
(A) < 0.1 µM

(Q) Similarly, "CCc1cc2c(O)nccc2n1Cc1ccc(B(O)O)cc1" ?
(A) < 0.01 µM

(Q) Similarly, "Nc1nc2c(ncn2Cc2ccc(B(O)O)cc2)c(=O)[nH]1" ?
(A) < 0.1 µM

(Q) Similarly, "N#Cc1ccc2c(c1)ncn2Cc1ccc(P(=O)(O)O)cc1" ?
(A) < 1 µM

(Q) Similarly, NC(=O)c1ccc2c(c1)ncn2Cc1ccc(B(O)O)cc1 [Compound 17, trifluoroacetic acid salt] ?
(A) < 0.01 µM

(Q) Similarly, "COc1nccc2c1cnn2Cc1ccc(B(O)O)cc1" ?
(A) < 1 µM

(Q) Similarly, "OB(O)c1ccc(Cn2cnc3c(C(F)F)cccc32)cc1" ?
(A) < 1 µM

(Q) Similarly, "NC(=O)c1ccc2c(cnn2Cc2ccc(P(=O)(O)O)cc2)c1" ?
(A) < 0.1 µM

(Q) Similarly, "Cc1nc2cc(C(N)=O)ccc2n1Cc1ccc(B(O)O)cc1" ?
(A) < 0.01 µM

(Q) Similarly, "O=P(O)(O)c1ccc(Cn2cnc3nc(O)ccc32)cc1" ?
(A) < 0.1 µM

(Q) Similarly, "COc1cc2c(cc1C(N)=O)ncn2Cc1ccc(B(O)O)cc1" ?
(A) < 0.1 µM

(Q) Similarly, "O=P(O)(O)c1ccc(Cn2ncc3c(O)nccc32)cc1" ?
(A) < 0.1 µM
